Molecular target: Ubiquitin-activating enzyme e1, putative (Leishmania donovani (strain BPK282A1)) (UniProt E9BSI1)
Sequence (E9BSI1 as listed by the source): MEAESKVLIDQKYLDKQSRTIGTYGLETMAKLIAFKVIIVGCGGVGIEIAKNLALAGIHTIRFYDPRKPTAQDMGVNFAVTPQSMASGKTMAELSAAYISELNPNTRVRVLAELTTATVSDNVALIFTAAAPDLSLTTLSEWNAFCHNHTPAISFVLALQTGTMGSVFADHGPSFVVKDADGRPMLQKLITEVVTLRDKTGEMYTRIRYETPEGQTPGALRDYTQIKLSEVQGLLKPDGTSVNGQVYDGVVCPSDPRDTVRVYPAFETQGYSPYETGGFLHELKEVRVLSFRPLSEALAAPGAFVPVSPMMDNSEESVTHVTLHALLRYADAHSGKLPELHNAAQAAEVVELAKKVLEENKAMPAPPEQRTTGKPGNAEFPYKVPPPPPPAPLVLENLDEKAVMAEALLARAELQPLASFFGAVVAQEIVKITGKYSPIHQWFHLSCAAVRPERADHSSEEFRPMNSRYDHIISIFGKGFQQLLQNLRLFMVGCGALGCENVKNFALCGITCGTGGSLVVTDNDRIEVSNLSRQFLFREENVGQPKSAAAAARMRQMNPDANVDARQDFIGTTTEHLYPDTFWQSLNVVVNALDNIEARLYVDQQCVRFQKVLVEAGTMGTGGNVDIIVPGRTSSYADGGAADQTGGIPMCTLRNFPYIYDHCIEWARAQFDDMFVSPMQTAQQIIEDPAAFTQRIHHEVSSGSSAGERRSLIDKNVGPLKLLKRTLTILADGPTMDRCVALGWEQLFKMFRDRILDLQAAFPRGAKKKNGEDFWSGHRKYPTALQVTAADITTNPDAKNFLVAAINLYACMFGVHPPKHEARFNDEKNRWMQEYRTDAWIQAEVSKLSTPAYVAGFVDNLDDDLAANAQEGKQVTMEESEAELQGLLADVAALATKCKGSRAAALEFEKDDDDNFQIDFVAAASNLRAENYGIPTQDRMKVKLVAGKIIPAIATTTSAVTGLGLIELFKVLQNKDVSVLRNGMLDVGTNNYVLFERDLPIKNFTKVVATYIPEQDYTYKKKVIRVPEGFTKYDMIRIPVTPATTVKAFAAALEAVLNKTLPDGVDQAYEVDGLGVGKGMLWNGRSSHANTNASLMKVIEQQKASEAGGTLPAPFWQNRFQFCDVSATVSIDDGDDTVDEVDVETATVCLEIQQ
Assay: Leishmania donovani Ubiquitin Activating Enzyme (LdE1)
Assay type: functional
Design: scale not given: direction of the effect not stated beside the values
Conditions: 30 µM
Measured potencies and affinities stand elsewhere.
Measured Percent Effect values are reported for all entries that follow.
measured_property: Percent Effect (%)

{"columns": ["compound", "recorded_number"],
 "data": [
  ["O=C(CO)N1CCC(c2cncc(-c3cccc(Cl)c3)n2)CC1", -2.67],
  ["Cc1c(C(=O)N2CCCC2c2cnn(C)c2)nnn1-c1ccccc1 (stereo not drawn)", 13.5],
  ["Cc1nc2ccnn2c(C)c1CCC(=O)N1CCN(C2CC2)CC1", 18.4],
  ["COc1cccc(CN(C)C(=O)CN2CC(n3nc(C)cc3C)C2)c1", -73.7],
  ["CCN(CC)CCNC(=O)c1nn(CC)cc1Cl", 20],
  ["COCCN(Cc1ccoc1)C(=O)c1ccccc1Cl", 0],
  ["O=C1OCCN1CCc1nc(-c2cc3c4c(c2)CC(=O)N4CCC3)cs1", 0],
  ["O=C(NCCCNC(=O)c1cccc(O)c1)NCc1ccccc1F", 15.8],
  ["COc1cc(CN(C)C(=O)NCCC2CCCO2)ccc1SC (stereo not drawn)", 8.11],
  ["CS(=O)(=O)NCCCNC(=O)c1cccnc1O", 0],
  ["CNS(=O)(=O)c1ccc(C(=O)NCCNc2ncccn2)cc1", 10.5],
  ["CCc1cccc(OCC(=O)N2CCCC(n3cncn3)C2)c1 (stereo not drawn)", 13.5],
  ["CC(C)c1noc(C(C)N2CCN(Cc3ccccc3C#N)CC2)n1 (stereo not drawn)", -2.63],
  ["Cc1noc2nc(C3CCN(CC4=CCCOC4)CC3)cc(C(F)F)c12", 6.76],
  ["Cc1cnn(CC(C)NCc2nc(-c3ccco3)no2)c1 (stereo not drawn)", 12.5],
  ["CCC1c2cccn2CCN1C(=O)c1ccc2nonc2c1 (stereo not drawn)", -1.39],
  ["Cc1ncc2c(n1)CCN(C(=O)Cc1c(C)noc1C)C2", 13.2],
  ["Cc1ccc(C2CSCCN2C(=O)c2ccc(C(N)=O)cc2)o1 (stereo not drawn)", 5.41],
  ["CCN1CC2(CC1=O)CN(C(C)=O)CCN(C(=O)c1ccco1)C2 (stereo not drawn)", 5.48],
  ["O=S1(=O)c2ccccc2C2(CCN(Cc3ccccc3)C2)N1CC1CC1 (stereo not drawn)", 0],
  ["COCCN(C)CCN1CC2(CCN(C(=O)C3CCOC3)CC2)OC1=O (stereo not drawn)", 18.2],
  ["CCN1CCN(c2ccc(F)cc2C(C)NCc2noc(C)n2)CC1 (stereo not drawn)", -8.11],
  ["CC(C)n1ncc2c1NC(=O)CSC2C(C)(C)C (stereo not drawn)", 17.3],
  ["CCc1c(C(=O)N2CCCN(C(C)=O)CC2)cnn1C(C)(C)C", 23.7],
  ["Cc1scc(C(=O)N2CCC3(CCCN(C)C3=O)C2)c1-c1ccccc1 (stereo not drawn)", 0],
  ["Cc1oc(C(=O)O)cc1S(=O)(=O)Nc1c(F)cccc1-n1cccn1", 0],
  ["Fc1ccc(CNCC2OCCc3cn(CC4CC4)nc32)cc1 (stereo not drawn)", 0],
  ["Cc1ccc2oc(CNC(C)c3nnc4n3CCCC4)cc2c1 (stereo not drawn)", -10.8],
  ["COc1ccc(-c2nc(CN3CC(n4cc(C)cn4)C3)no2)cc1", 10.4],
  ["CCc1nnc2n1CCN(C(=O)c1ccc(-c3ccco3)nc1C)C2", 17.7],
  ["CC(=O)N1CCCC1c1ccc(-c2c(C)noc2C)cn1 (stereo not drawn)", -4.05],
  ["O=C(c1cn(-c2cc(N3CCOCC3)ncn2)cn1)N1CCSCC1", 8.22],
  ["CCc1ncc2c(n1)CN(C(=O)COC)C2", 8.22],
  ["CCn1nc(CC(C)C)cc1C(=O)N1CC[C@@H](O)C1", 18.7],
  ["CCCN(C)C(=O)c1ccc2c(c1)[nH]c(=O)n2CCOCC", 2.7],
  ["CCc1n[nH]c(C2CN(Cc3nnc(C4CC4)n3C)CCO2)n1 (stereo not drawn)", 20.8],
  ["O=C(CN(Cc1ccccc1)CC1CCOCC1)NC(=O)NC1CC1", 0],
  ["Cc1cc(CNC(=O)C2CCCCN2C(=O)OC(C)(C)C)no1 (stereo not drawn)", 2.7],
  ["COc1ccccc1C(=O)NC(CC(=O)O)c1cccs1 (stereo not drawn)", 13.9],
  ["COc1ccccc1N1CCC(CNCc2cccc(O)c2)C1 (stereo not drawn)", -5.41],
  ["Cc1ncc(-c2nc3cc(S(=O)(=O)N4CCCC4)ccc3n2C)cn1", 5.48],
  ["CCS(=O)(=O)N1C[C@H]2C[C@H](C(=O)N(C)C)[C@@H](C1)O2", 8],
  ["CN1CC(C(=O)NC(C)(C)C)CC1=O (stereo not drawn)", -5.48],
  ["Cc1ccc(N2CCCC(NCC(=O)Nc3cc(C)no3)C2)nn1 (stereo not drawn)", 13.9],
  ["CCN1CC(C(=O)N2CCC(Oc3ccccc3Cl)CC2)CC1=O (stereo not drawn)", 2.74],
  ["CCn1cnnc1C1CCN(C(=O)c2ccccc2OC)CC1", 7.79],
  ["O=C(NCc1ccco1)c1nn(C2CCS(=O)(=O)C2)c2c1CCCC2 (stereo not drawn)", 21.1],
  ["Cc1cc(C)c(CNC(=O)N2CCCC2c2cccn2C)c(=O)[nH]1 (stereo not drawn)", 8.86]
]}

---

Target: Proteasome subunit beta (Trypanosoma cruzi) (UniProt O96673)
Sequence (O96673 as listed by the source): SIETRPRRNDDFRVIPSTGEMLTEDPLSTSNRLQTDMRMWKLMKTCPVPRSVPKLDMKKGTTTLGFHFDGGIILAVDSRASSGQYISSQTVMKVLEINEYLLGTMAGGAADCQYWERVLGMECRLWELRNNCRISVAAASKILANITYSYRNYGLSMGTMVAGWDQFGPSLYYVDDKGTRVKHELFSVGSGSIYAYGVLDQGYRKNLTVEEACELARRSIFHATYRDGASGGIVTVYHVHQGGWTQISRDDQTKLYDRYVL
Test: Trypanosoma cruzi proteasome chymotrypsin-like activity (TcProtChymo) assay. Also: in the data most compounds retested in dose-response had high values.
Format: functional
Design: scale not given: direction of the effect not stated beside the values
Details: 9.37 µM

{"columns": ["compound", "test_system", "measurement_units", "Percent Effect"],
 "data": [
  ["Cc1nc(C(=O)N2CCCC2c2c(C)nn(C)c2C)ccc1C#N (configuration not stated)", "Proteasome subunit beta (Trypanosoma cruzi) (UniProt O96673)", "%", 16.1],
  ["O=C(c1cnccn1)N1CCc2onc(CN3CCOCC3)c2C1", "Proteasome subunit beta (Trypanosoma cruzi) (UniProt O96673)", "%", 11.8],
  ["CCc1c(C)nc2n(c1=O)CC(C(=O)Nc1ccccc1F)CS2 (configuration not stated)", "Proteasome subunit beta (Trypanosoma cruzi) (UniProt O96673)", "%", 7.83],
  ["CN(C)C(=O)CS(=O)(=O)Cc1cc(Cl)c2c(c1)OCO2", "Proteasome subunit beta (Trypanosoma cruzi) (UniProt O96673)", "%", 5.16],
  ["Cc1ccc(-n2nnc(CC(=O)N3CCOCC3)c2C)cc1", "Proteasome subunit beta (Trypanosoma cruzi) (UniProt O96673)", "%", 13],
  ["Cc1ccc(CNCc2nnc3n2CCCC3C(F)(F)F)s1 (configuration not stated)", "Proteasome subunit beta (Trypanosoma cruzi) (UniProt O96673)", "%", 18],
  ["Cc1ccc(NC2CCN(C(=O)c3ccsc3)CC2)nn1", "Proteasome subunit beta (Trypanosoma cruzi) (UniProt O96673)", "%", 5.57],
  ["Cc1cnc(N)c(C(=O)C2CCN(C(=O)c3ccccc3F)CC2)c1", "Proteasome subunit beta (Trypanosoma cruzi) (UniProt O96673)", "%", 6.26],
  ["CCc1nnc2n1CCN(C(=O)c1csc(-c3cnn(C)c3)n1)C2", "Proteasome subunit beta (Trypanosoma cruzi) (UniProt O96673)", "%", 15.1],
  ["O=C(NCC1CC1)[C@@H]1CCO[C@@H]2CCN(Cc3ccco3)C[C@H]21", "Proteasome subunit beta (Trypanosoma cruzi) (UniProt O96673)", "%", -1.2],
  ["CN(C)Cc1nnc(C2CCN(C(=O)CCc3cccs3)CC2)n1C", "Proteasome subunit beta (Trypanosoma cruzi) (UniProt O96673)", "%", 12.1],
  ["CSCc1cccc(S(=O)(=O)NCCCO)c1", "Proteasome subunit beta (Trypanosoma cruzi) (UniProt O96673)", "%", 3.33]
]}

---

Molecular target: AMP-activated protein kinase, AMPK (Homo sapiens) (UniProt P54646+O43741+P54619+Q9UGJ0+Q9Y478+Q13131+Q9UGI9)
Test: AMP-dependent Kinase enzyme assay. An in vitro enzyme assay that detects ADP turnover that is directly proportional to AMPK activity. This uses naive AMPK that is activated during the assay with MK-8722
Format: functional
Parameters: scale not given: direction of the effect not stated beside the values
Settings: 30 µM
measured_property: Percent Effect (%)

{"columns": ["compound", "recorded_number"],
 "data": [
  ["CCCc1n[nH]c(C2CN(C(=O)C3=COCCC3)CCO2)n1 (stereo unspecified)", -0.787],
  ["CC(C)c1nc2c(n1C)CCN(Cc1nc(-c3ccsc3)no1)C2", -9.21],
  ["O=C(NCCNc1ncccn1)c1ccc(-c2ccco2)[nH]c1=O", -6.43],
  ["CCOc1ccccc1Nc1nc2c(C)nn(C)c2c(=O)n1C", 1.12],
  ["O=S(=O)(Cc1ccccc1)NCc1ccco1", 13.3],
  ["COc1ccc(-c2nc(CN3CC(n4nc(C)cc4C)C3)no2)cc1", 0.251]
]}
